- Test system: Plasmodium falciparum
- measurement.notes: Antiplasmodial activity against drug-resistant Plasmodium falciparum Dd2
- Assay type: functional, organism-based
quantity.measured: pIC50
Answer as the number alone; pIC50 is minus log10 of concentration in mol/L.

compound `CC1=C(C)[C@H]2[C@H](Cc3ccc(O)cc3)NC(=O)[C@]23OC(=O)C/C=C(/C)C(=O)[C@@H](C)C/C=C/[C@H]3[C@@H]1O` , pIC50 observed: 5.15
